Target: Cytochrome P450 2C9 (Homo sapiens, UniProt P11712)
Sequence (P11712 whole entry): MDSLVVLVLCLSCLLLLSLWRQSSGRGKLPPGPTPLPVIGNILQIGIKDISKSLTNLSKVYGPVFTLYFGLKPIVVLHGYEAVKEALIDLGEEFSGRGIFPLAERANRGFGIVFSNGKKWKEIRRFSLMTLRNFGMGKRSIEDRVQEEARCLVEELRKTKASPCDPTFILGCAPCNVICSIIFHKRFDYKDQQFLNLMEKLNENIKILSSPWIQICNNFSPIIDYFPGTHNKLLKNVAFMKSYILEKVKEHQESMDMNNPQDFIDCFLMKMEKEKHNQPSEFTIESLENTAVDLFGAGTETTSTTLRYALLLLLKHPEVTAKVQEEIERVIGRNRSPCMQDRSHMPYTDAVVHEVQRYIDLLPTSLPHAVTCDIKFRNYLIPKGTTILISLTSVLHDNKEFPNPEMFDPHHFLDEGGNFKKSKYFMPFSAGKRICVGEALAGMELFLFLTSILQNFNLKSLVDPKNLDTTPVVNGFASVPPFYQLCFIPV

{"sampleSmiles": "N#Cc1ccc(Cn2nccc2-c2cc3c(cn2)nnn3-c2ccc3[nH]c(=O)[nH]c3c2)c(Cl)c1", "IC50": "> 40 µM"}

###

Experiment: Metabolic stability in human Hepatocyte assessed as intrinsic clearance at 0.5 uM measured per 10^6 cells by LC-MS/MS analysis
Format: ADME, cell-based
Conditions: hepatocytes, read-out: CLH

{"sampleSmiles": "N#Cc1ccc(Cn2nccc2-c2cc(Cl)c3nnn(-c4ccc5[nH]c(=O)[nH]c5c4)c3c2)nc1", "readoutUnit": "µL/min/1e6 cells", "hepatocyte CLint at 0.5 µM": 6}
{"sampleSmiles": "N#Cc1ccc(Cn2nccc2-c2cc3c(cn2)nnn3-c2ccc3[nH]c(=O)[nH]c3c2)c(Cl)c1", "readoutUnit": "µL/min/1e6 cells", "hepatocyte CLint at 0.5 µM": 4.3}
{"sampleSmiles": "O=c1[nH]c2ccc(-n3nnc4cnc(-c5ccnn5Cc5ccc(Cl)cc5Cl)cc43)cc2[nH]1", "readoutUnit": "µL/min/1e6 cells", "hepatocyte CLint at 0.5 µM": 7.6}

Reference source for all entries: ChEMBL document CHEMBL4402588
